B1: VTI1B (parent)
chain: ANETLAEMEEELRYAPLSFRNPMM

- Variants of: B1
- Method: protein stability index of a GFP-peptide fusion (GPS, HEK-293T) (PSI 1-6); higher = more stable;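 further: lentivirally expressed fusions sorted by FACS into six bins by GFP to DsRed ratio, PSI derived from sequencing read proportions per bin multiplied by bin number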
- Measurement Setup: c terminus: a fixed tail appended
Measurement Kind: protein stability index
Could you keep your reply to the number by itself?

Reference set, count: 2
| Variant Designation | Value |
| --- | --- |
| L17Q | 4.14 |
| F19C | 4.43 |

# lookup: protein stability index of "P22M"
3.63

# lookup: protein stability index of "N2I"
2.53

# lookup: protein stability index of "A6L"
1.88

# lookup: protein stability index of "A1Y"
2.54
